Tested on: Mus musculus
Experiment: Analgesic activity in Swiss albino mouse assessed as inhibition of tail withdrawal administered orally at equimolar oral dose relative to 10 mg/kg flurbiprofen after 4 hrs
Format: functional
reported-property: inhibition in vivo (%)
Give bare numbers, in %.

Before answering, review these 4 worked examples.
| molecule | readout-value |
| --- | --- |
| CC(C)Cc1ccc(C(C)c2nnc(COc3ccc(-c4ccccc4)cc3)o2)cc1 (stereo not given) | 72.8 |
| CC(C(=O)O)c1ccc(-c2ccccc2)c(F)c1 (stereo not given) | 69.5 |
| Fc1ccc(-n2c(S)nnc2COc2ccc(-c3ccccc3)cc2)cc1 | 30.5 |
| Clc1ccc(-c2nnc(COc3ccc(-c4ccccc4)cc3)o2)cc1 | 16.9 |

Shift focus to the following entry.
The reported inhibition in vivo value, Mus musculus, for CCCCn1c(S)nnc1COc1ccc(-c2ccccc2)cc1 reads 58.2
